Origin of values: patent US7074789B2

assayed system: Kdr (Homo sapiens)
Construct: Kinases are expressed as either kinase domains or full length constructs; made in house
Sequence (P35968 20-1356, species assumed): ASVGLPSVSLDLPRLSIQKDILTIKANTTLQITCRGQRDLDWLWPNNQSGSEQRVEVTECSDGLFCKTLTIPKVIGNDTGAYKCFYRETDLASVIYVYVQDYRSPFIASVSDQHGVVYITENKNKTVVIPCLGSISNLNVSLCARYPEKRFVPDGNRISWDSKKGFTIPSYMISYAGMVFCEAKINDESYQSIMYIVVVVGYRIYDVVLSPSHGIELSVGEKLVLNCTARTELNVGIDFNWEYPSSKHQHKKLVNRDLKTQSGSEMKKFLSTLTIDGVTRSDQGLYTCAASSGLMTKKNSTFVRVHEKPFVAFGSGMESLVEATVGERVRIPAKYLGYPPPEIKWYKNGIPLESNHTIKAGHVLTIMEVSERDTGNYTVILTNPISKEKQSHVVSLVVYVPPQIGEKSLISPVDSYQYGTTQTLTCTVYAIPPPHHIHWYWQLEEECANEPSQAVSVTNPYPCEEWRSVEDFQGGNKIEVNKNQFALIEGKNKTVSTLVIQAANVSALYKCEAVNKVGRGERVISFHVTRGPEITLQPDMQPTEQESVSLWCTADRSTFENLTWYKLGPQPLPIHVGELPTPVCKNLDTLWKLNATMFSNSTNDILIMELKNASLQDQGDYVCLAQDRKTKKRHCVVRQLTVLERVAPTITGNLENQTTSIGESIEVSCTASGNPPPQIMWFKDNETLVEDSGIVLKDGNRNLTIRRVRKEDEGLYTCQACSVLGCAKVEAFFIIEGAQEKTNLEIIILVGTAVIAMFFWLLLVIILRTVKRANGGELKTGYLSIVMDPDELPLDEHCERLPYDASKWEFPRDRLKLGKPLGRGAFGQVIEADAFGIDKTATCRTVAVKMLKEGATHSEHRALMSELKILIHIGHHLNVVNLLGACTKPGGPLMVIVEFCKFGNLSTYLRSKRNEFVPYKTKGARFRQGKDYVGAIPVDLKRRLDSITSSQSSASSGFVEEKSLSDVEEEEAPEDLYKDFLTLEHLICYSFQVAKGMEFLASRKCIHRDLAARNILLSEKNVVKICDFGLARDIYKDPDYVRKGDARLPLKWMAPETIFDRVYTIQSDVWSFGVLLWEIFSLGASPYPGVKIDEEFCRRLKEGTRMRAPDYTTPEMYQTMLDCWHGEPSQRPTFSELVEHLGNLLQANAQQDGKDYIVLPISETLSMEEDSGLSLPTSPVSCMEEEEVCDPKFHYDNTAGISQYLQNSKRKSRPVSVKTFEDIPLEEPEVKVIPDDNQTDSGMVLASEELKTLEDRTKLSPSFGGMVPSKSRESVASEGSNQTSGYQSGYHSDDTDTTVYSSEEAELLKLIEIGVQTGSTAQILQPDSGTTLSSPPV
assay name: Kinase inhibition assay (33P transfer), Kdr
Type: biochemical
settings: Table 3; read-out: KDR-1
# IC50 values compiled below

Solved entries:
>>> reading("COc1cc(Nc2ncnc(Nc3cnc4ccccc4c3)n2)cc(OC)c1OC [Compound 99]")
"< 989 nM"
>>> reading("COc1cc(Nc2ncnc(Nc3cc(C)ccc3C)n2)cc(OC)c1OC [Compound 932]")
"< 1050 nM"
>>> reading("C=CCN(c1ccc(Cl)cc1)c1ncnc(Nc2cc(OC)c(OC)c(OC)c2)n1 [Compound 972]")
"< 935 nM"
>>> reading("COc1cc(Nc2ncnc(-n3ccc4cc(Cl)ccc43)n2)cc(OC)c1OC [Compound 198]")
"971 to 5830 nM"
>>> reading("COc1cc(Nc2ncnc(Nc3cccc(OCc4ccccc4)c3)n2)cc(OC)c1OC [Compound 73]")
"> 9790 nM"

In plain terms, COc1cc(Nc2ncnc(Nc3ccc(Br)c(Cl)c3)n2)cc(OC)c1OC [Compound 936] has a documented IC50 of 857 to 5140 nM

// IC50 lookup, compound = OCc1cccc(Nc2ncnc(Nc3cc(-c4ccco4)n[nH]3)n2)c1 [Compound 429] , result: < 1140 nM

Briefly, IC50 measured for c1ccc(-c2ncnc(Nc3ccc(OCCCN4CCOCC4)cc3)n2)cc1 [Compound 154] : 1020 to 6130 nM

Reported IC50 for NC(=O)c1ccc(Nc2ncnc(-c3ccccc3)n2)cc1 [Compound 1028] was > 15400 nM

----------
We begin with a simple list: items and their reported pIC50.
assayed system: AKT (Homo sapiens, UniProt Q9Y243)
Construct: Kinases are expressed as either kinase domains or full length constructs; made in house
Sequence (Q9Y243 whole entry, the tested form may be a part): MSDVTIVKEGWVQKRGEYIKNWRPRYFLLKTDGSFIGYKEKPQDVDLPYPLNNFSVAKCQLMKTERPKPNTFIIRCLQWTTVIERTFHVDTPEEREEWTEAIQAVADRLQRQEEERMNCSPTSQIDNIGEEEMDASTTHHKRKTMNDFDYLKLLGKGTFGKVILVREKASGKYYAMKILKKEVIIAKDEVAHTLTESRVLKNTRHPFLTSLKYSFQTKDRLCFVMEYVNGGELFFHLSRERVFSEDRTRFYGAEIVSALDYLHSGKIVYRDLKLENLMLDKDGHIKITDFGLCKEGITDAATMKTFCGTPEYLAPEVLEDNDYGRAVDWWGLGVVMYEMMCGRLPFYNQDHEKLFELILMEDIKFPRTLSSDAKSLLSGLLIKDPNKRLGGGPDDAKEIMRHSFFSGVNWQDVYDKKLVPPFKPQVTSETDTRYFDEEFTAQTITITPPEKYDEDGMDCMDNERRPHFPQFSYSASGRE
assay name: Kinase inhibition assay (33P transfer), AKT
Assay type: biochemical
settings: Table 2, kinase inhibition class; read-out: AKT3-1
pIC50: −log10 of the molar value.

// worked examples, pIC50 included
>>> reading("Nc1nc2ccccc2n1-c1ncnc(Nc2ccc(-c3cnco3)cc2)n1")
"5.02 to 5.19"
>>> reading("COc1cc(Nc2ncnc(Nc3nc(C)cs3)n2)cc(OC)c1OC")
"< 4.92"
>>> reading("CN(c1cccc(Cl)c1)c1ncnc(Nc2ccc(F)c(Cl)c2)n1")
"< 4.91"
>>> reading("COc1ccc(Nc2ncnc(N(CC(=O)O)c3ccc4c(c3)OCO4)n2)cc1OC")
"< 4.98"

Recorded result, COc1cc(Nc2ncnc(-c3c(O)[nH]c4ccc(Cl)cc34)n2)cc(OC)c1OC , pIC50: < 4.98

----------
assayed system: AKT (Homo sapiens)
Construct: Kinases are expressed as either kinase domains or full length constructs; made in house
assay name: Kinase inhibition assay (33P transfer), AKT
Type: biochemical
settings: Table 2, kinase inhibition class; read-out: AKT3-1
IC50 for assorted compounds

// worked examples, IC50 included
>>> reading("COc1cc(Nc2ncnc(-n3c(Nc4ccc5[nH]ccc5c4)nc4ccccc43)n2)cc(OC)c1OC")
"> 8.85 µM"
>>> reading("NC(=O)c1cccc(Nc2ncnc(-n3c(=O)[nH]c4ccccc43)n2)c1")
"> 13 µM"
>>> reading("COc1cc(Nc2ncnc(Nc3[nH]ncc3-c3cccs3)n2)cc(OC)c1OC")
"> 10.6 µM"
>>> reading("COc1ccc(Nc2ncnc(N3CCCc4ccc(C)cc43)n2)cc1OC")
"> 11.9 µM"
>>> reading("CCOc1ccc(Nc2ncnc(-n3c(N)nc4ccccc43)n2)cc1OCC")
"1.02 to 6.13 µM"

Quick note, IC50 for C=CCNc1ncccc1-c1ncnc(Nc2ccc(C(N)=O)cc2)n1 landed at > 13 µM

The measured IC50 associated with COc1cc(Nc2ncnc(Nc3ccc(Br)cc3F)n2)cc(OC)c1OC reads > 9.99 µM

The measured IC50 associated with CC[C@H]1CN(c2ccc(-c3ncnc(Nc4cc(OC)c(OC)c(OC)c4)n3)cn2)CCN1 reads > 9.97 µM

----------
Quick list: IC50 per entry.
assayed system: Lck (Homo sapiens)
Construct: Kinases are expressed as either kinase domains or full length constructs; made in house
Sequence (P06239 whole entry, species assumed, the tested form may be a part): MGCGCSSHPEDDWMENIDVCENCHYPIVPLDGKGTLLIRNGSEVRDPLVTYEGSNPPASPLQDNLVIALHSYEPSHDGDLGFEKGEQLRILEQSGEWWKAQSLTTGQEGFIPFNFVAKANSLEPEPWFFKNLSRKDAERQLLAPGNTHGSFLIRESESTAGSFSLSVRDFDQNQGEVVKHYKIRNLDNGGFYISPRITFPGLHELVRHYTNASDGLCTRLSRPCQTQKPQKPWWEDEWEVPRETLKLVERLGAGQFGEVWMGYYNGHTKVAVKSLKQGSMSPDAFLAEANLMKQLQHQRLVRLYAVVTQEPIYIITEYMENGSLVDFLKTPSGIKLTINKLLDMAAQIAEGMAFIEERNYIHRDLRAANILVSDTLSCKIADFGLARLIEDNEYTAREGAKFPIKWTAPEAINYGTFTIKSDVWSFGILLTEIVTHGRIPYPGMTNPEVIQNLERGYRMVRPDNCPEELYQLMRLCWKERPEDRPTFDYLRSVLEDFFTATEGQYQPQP
assay name: Kinase inhibition assay (33P transfer), Lck
Assay type: biochemical
settings: Table 3; read-out: Lck-1

>>> reading("COc1cc(Nc2ncnc(Nc3ccc(C(C)C)cc3)n2)cc(OC)c1OC")
"1.01 to 6.07 µM"
>>> reading("COc1ccccc1Nc1nc2ccccc2n1-c1ncnc(Nc2cc(OC)c(OC)c(OC)c2)n1")
"> 9.01 µM"
>>> reading("COc1cc(Nc2ncnc(N[C@H](CO)c3ccccc3)n2)cc(OC)c1OC")
"> 11.3 µM"

In plain terms, COc1cc(Nc2ncnc(-n3ccc4cc(F)ccc43)n2)cc(OC)c1OC has a documented IC50 of 6.07 to 8.85 µM

Item: COC(=O)c1cccc(Nc2nc3ccccc3n2-c2ncnc(Nc3cc(OC)c(OC)c(OC)c3)n2)c1 | IC50: 4.55 to 6.63 µM

The recorded IC50 for entry COc1cc(Nc2ncnc(-n3c(NCCCCO)nc4ccccc43)n2)cc(OC)c1OC equals 5.16 to 7.52 µM

Value of IC50 reported for the compound CC(=O)NCc1ccc(Nc2ncnc(Nc3cc(-c4ccco4)n[nH]3)n2)cc1 is > 11.5 µM

Data point: COc1ccc(Nc2ncnc(Nc3ccc(OCc4ccccc4)cc3)n2)cc1 ; IC50 = > 11.3 µM

----------
IC50 values for the molecules below.
assayed system: EGFR (Homo sapiens, UniProt P00533)
Construct: Kinases are expressed as either kinase domains or full length constructs; made in house
Sequence (P00533 25-1210, species assumed): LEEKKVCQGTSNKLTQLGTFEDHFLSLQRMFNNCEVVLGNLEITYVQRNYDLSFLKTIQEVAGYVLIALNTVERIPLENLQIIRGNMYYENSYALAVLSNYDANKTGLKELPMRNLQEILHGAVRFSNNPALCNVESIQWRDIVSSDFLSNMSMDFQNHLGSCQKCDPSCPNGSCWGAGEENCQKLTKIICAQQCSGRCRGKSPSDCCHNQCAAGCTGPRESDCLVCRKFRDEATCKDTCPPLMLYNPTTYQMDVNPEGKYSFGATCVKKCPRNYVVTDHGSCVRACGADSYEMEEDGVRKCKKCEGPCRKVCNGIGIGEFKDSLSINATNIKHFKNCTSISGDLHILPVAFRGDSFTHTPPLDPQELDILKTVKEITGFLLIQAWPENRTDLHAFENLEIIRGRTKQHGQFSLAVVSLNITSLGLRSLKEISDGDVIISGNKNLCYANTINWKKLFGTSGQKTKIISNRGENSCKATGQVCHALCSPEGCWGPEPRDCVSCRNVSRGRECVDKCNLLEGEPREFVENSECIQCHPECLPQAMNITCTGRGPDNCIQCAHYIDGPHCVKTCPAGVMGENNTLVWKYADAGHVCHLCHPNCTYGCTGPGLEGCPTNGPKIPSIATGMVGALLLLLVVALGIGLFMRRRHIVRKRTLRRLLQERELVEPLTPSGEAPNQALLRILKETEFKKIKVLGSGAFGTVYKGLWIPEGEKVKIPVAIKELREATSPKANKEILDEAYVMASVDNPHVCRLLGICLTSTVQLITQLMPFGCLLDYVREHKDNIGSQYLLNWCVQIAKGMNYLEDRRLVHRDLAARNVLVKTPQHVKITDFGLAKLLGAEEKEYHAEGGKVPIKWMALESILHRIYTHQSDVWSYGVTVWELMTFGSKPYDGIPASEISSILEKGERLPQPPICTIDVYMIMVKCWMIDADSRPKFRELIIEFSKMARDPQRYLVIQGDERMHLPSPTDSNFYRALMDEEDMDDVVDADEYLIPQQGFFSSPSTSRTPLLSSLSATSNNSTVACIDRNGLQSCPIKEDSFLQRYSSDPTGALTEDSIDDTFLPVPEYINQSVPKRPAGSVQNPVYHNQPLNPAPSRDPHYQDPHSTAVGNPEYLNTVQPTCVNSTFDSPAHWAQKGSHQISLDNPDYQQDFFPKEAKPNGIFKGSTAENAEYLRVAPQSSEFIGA
assay name: Kinase inhibition assay (33P transfer), EGFR
Format: biochemical
settings: Table 2, kinase inhibition class; read-out: EGFR-1

Guide cases for IC50, answers given:
>>> reading("COc1cc(C)c(Nc2ncnc(-n3c(N)nc4ccccc43)n2)cc1OC")
"> 11.9 µM"
>>> reading("COc1cc(Nc2ncnc(-c3c(O)[nH]c4ccccc34)n2)cc(OC)c1OC")
"> 11.4 µM"
>>> reading("NC(=O)c1ccc(Nc2ncnc(Nc3cc(-c4ccco4)n[nH]3)n2)cc1")
"6.62 to 9.66 µM"
>>> reading("COc1cc(Nc2ncnc(-n3c(NCc4ccc(C(F)(F)F)cc4)nc4ccccc43)n2)cc(OC)c1OC")
"> 8.16 µM"
>>> reading("O=C(Nc1ccc(Nc2ncnc(-n3c(=O)[nH]c4ccccc43)n2)cc1)O[C@@H]1CCOC1")
"> 10.4 µM"

Noted for COc1ccc([C@H](C)Nc2nc3ccccc3n2-c2ncnc(Nc3cc(OC)c(OC)c(OC)c3)n2)cc1 : its IC50 reads > 8.53 µM

IC50 for COc1cc(Nc2ncnc(Nc3ccc(C)cc3F)n2)cc(OC)c1OC is < 1.04 µM

The value of IC50 measured for the molecule COc1cccc(Nc2nc3ccccc3n2-c2ncnc(Nc3cc(OC)c(OC)c(OC)c3)n2)c1 turned out to be > 9.01 µM

Reported IC50 ( COc1cc(Nc2ncnc(Nc3cccc(Oc4ccccc4)c3)n2)cc(OC)c1OC ) = 0.898 to 5.39 µM

IC50 reading for NC(=O)c1cccc(Nc2ncnc(-c3cccs3)n2)c1 : > 15.1 µM

----------
assayed system: EGFR (Homo sapiens, UniProt P00533)
Construct: Kinases are expressed as either kinase domains or full length constructs; made in house
assay name: Kinase inhibition assay (33P transfer), EGFR
Format: biochemical
settings: Table 2, kinase inhibition class; read-out: EGFR-1
Experimental: The inhibitor compounds described herein are screened in the following manner. […] Kinases are expressed as either kinase domains or full length constructs fused to glutathione S-transferase (GST) or polyHistidine tagged fusion proteins in either E. colior Baculovirus-High Five expression systems. […] Kinase activity and inhibition are measured essentially by established protocols (Braunwalder et al., 1996). […]
measurement kind: IC50

>>> reading("COc1cc(Nc2ncnc(-c3ccc(F)cc3)n2)cc(OC)c1OC [Compound 222]")
"> 12.6 µM"
>>> reading("COc1cc(Nc2ncnc(-c3ccccc3)n2)cc(OC)c1 [Compound 15]")
"> 14.6 µM"
>>> reading("CC(=O)Nc1ccc(Nc2ncnc(N3CCCc4cc(C)ccc43)n2)cc1 [Compound 760]")
"< 1.07 µM"

Kindly note the recorded IC50 for COc1cc(Nc2ncnc(Nc3cccc(CN4CCN(C)CC4)c3)n2)cc(OC)c1OC [Compound 1047] , which is > 9.67 µM

Value of IC50 reported for the compound Fc1cccc(Nc2ncnc(-c3cccs3)n2)c1 [Compound 1073] is > 16.5 µM

// field: IC50; key: COc1cc(Nc2ncnc(-n3c(NCc4nc5ccccc5[nH]4)nc4ccccc43)n2)cc(OC)c1OC [Compound 954] ; value = > 8.6 µM

compound COc1cc(OC)cc(-c2nnc(Nc3ncnc(Nc4cc(OC)c(OC)c(OC)c4)n3)[nH]2)c1 [Compound 312] , IC50 observed: > 9.37 µM

Given item COc1ccc(Nc2ncnc(Nc3cccc(C)c3)n2)cc1OC [Compound 108] , the value recorded as its IC50 is < 1.19 µM

Noted for COc1cc(Nc2ncnc(N(C)c3ccc(Cl)cc3)n2)cc(OC)c1OC [Compound 616] : its IC50 reads < 0.995 µM
